# measured.target: T1, soluble human insulin receptor-immunoglobulin heavy chain chimera (sIR-Fc) (human, UniProt P06213 28-956, limits assumed, Eu3+ (LANCE) labelled in the TR-FRET assays)
# T1 construct: extracellular domain; also called HIR-immunoglobulin heavy chain chimera; not shown: immunoglobulin heavy chain constant domains
# protocol.text: FP competition, label FITC-RP9, sIR-Fc
property: IC50 (nM)
Give your result in nM as a bare value.

Please report the recorded IC50 for GSLDESFYDWFERQLGKK (also called S371) [RP9] .
10
